- Subject Of Test: CYP2C19 (Homo sapiens, UniProt P33261)
- Sequence (P33261 whole entry): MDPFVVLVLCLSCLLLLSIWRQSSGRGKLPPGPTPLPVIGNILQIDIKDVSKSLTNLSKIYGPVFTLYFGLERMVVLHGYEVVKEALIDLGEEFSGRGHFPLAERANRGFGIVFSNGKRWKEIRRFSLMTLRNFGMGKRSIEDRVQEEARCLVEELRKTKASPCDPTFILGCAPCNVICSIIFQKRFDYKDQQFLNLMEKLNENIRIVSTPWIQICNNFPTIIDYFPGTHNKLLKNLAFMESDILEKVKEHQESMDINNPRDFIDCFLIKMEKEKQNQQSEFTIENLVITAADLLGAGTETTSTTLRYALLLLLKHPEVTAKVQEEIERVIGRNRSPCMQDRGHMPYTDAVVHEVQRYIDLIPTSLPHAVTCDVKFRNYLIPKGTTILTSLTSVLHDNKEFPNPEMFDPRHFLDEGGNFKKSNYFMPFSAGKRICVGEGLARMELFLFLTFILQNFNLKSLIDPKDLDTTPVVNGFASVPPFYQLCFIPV
- Protocol Notes: cell-based
Measured Parameter: pIC50
A value of pIC50 is the negative decimal logarithm of a concentration given in moles per litre.

Query (compound): O=C(O)COc1ccc(C(=O)c2cccs2)c(Cl)c1Cl [Tienilic acid] ; field requested: pIC50
5.24

---

- Subject Of Test: CYP2D6 (Homo sapiens)
- Sequence (P10635 whole entry): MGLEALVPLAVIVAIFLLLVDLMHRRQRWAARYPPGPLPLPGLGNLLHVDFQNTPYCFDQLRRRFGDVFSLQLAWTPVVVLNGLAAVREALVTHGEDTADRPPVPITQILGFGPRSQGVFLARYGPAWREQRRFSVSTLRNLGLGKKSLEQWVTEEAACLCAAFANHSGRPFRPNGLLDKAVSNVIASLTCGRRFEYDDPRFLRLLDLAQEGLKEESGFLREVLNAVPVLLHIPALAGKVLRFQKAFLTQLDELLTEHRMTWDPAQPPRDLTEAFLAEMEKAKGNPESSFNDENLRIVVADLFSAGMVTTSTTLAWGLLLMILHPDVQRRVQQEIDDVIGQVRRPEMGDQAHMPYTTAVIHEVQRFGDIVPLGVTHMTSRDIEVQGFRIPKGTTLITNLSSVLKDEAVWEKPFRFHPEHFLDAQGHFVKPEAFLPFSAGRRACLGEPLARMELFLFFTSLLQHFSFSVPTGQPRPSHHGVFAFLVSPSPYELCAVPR
- Protocol Notes: cell-based
Measured Parameter: pIC50
Notebook: values listed as pIC50 are -log10 of the concentration (mol/L).

Requested field: pIC50. Item: CN(C/C=C/C#CC(C)(C)C)Cc1cccc2ccccc12
8.68

---

- Subject Of Test: CYP2C19 (Homo sapiens, UniProt P33261)
- Protocol Notes: cell-based
- Format: in vitro ADME
- Set-up: endogenous in cells; host or cells: primary human hepatocytes
- Condition Label: primary human hepatocytes; mean ± S.D. of triplicate
Measured Parameter: IC50 (nM)
Report the figure in nM without appending any unit label.

For the record O=C(O)COc1ccc(C(=O)c2cccs2)c(Cl)c1Cl , what value of IC50 is listed for CYP2C19 (Homo sapiens, UniProt P33261)?
550

---

- Subject Of Test: CYP3A4 (Homo sapiens)
- Sequence (P08684 2-503): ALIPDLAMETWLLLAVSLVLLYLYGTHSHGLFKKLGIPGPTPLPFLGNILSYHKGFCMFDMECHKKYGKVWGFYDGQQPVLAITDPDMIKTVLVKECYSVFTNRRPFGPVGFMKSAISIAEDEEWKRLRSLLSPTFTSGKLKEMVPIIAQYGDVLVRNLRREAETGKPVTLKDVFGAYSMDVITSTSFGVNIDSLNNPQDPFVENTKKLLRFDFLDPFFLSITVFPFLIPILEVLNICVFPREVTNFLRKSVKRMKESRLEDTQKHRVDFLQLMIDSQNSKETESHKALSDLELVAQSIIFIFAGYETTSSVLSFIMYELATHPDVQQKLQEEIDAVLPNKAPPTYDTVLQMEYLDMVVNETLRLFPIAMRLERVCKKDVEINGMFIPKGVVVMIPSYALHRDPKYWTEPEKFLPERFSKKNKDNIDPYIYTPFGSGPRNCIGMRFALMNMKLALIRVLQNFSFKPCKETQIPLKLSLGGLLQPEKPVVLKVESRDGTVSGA
- Protocol Notes: in vitro
- Condition Label: human
KI (inactivation) reference
Give just the numeric value; µM need not be written.

CC[C@H]1OC(=O)[C@H](C)[C@@H](O[C@H]2C[C@@](C)(OC)[C@@H](O)[C@H](C)O2)[C@H](C)[C@@H](O[C@@H]2O[C@H](C)C[C@H](N(C)C)[C@H]2O)[C@](C)(OC)C[C@@H](C)C(=O)[C@H](C)[C@@H](O)[C@]1(C)O 3.76

With those in mind, consider the next compound.
Which KI (inactivation) is reported for this compound? CC[C@H]1OC(=O)[C@H](C)[C@@H](O[C@H]2C[C@@](C)(OC)[C@@H](O)[C@H](C)O2)[C@H](C)[C@@H](O[C@@H]2O[C@H](C)C[C@H](N(C)C)[C@H]2O)[C@](C)(O)C[C@@H](C)/C(=N\OCOCCOC)[C@H](C)[C@@H](O)[C@]1(C)O
4.6

// data source = paper PMC5655360
